Consider the following substances; for each one, report its PGC-1α (change in expression).
Tested on: PGC-1α
Assay: Cell test: western blotting of PGC-1α in C2C12 mouse myoblasts
Type: cell-based
Settings: C2C12 mouse myoblasts, final concentration 20 μL/mL, 24 hours, western blotting

# PGC-1α (change in expression) (substance: VATVIQVL [polypeptide 5, reference compound] ) is +3%

# PGC-1α (change in expression) (substance: INPNEQREV [polypeptide 2] ) is +0%

# PGC-1α (change in expression) (substance: GGGDATRYSTGGGYS [polypeptide 1] ) is +161%

# PGC-1α (change in expression) (substance: MQIFVKTLTG [polypeptide 3] ) is +258%

# PGC-1α (change in expression) (substance: MQIFVK [polypeptide 4] ) is +155%
